Data provenance: patent US20190144541A1

Target: T1, PD-1 on PD1-CHO cells
T1 construct: also called cell-surface PD-1
T1 sequence (chain, as listed by the source limits assumed): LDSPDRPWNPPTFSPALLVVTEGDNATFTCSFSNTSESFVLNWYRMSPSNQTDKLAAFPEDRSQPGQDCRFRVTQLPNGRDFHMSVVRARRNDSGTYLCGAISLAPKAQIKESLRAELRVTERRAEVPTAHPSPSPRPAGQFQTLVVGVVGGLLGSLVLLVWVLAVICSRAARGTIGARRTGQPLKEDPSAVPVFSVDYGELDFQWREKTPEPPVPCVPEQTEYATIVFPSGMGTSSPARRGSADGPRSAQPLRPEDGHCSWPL
Assay: cell ELISA on fixed PD1-CHO cells, anti-human Fc-HRP
quantity.kind: EC50 (read off the curve)

binder: DFPD1-12 full-length anti-PD-1 monoclonal antibody (antibody, human IgG4 S228P, kappa, V domains shown, Expressed in HEK293E cells and purified on protein A) VH: QVQLVESGGGVVQPGRSLRLDCKASGITFSNYGMHWVRQAPGKGLEWVAVIWYDGSKKYYADSVKGRFTISRDNSKNTLFLQMNSLRAEDTAVYYCATNNDYWGQGTLVTVSS VL: DIQMTQSPSSLSASVGDRVTITCRASQSIHNYLDWYQQKPGKAPKLLIYNASTRATGVPSRFSGSGSGTDFTLTISSLQPEDFATYYCQQELHLPLTFGQGTKVEIKR
measured.result: ~2 nM
